# Tested on: MDA-MB-435 melanoma
# Test Summary: NCI-60 one-dose screen, 48 h (100 = growth as untreated, 0 = no growth, -100 = all killed)
# Condition Description: 10 µM unless noted
Compounds without any hit were thinned out: in the full panel of roughly 83,000, 20% have a hit. Calls of active or inactive are those of the source. Rule for the calls: active = growth percent below 10; inactive = the rest.
Measure: growth

Smiles String | Measure | Endpoint Result
COc1ccc(C(=O)c2cc(C)c(OC)c(C)c2)c(OC)c1N(C(=O)CCl)C(=O)CCl | growth | -46.8% (active)
COc1cc(/C(C)=C(\c2ccc(Cl)cc2)c2ccc(OCCN(C)C)cc2)ccc1F | growth | 39.6% (inactive)
Cc1nc2ccc(Cl)cn2c1-c1nnc(SCc2ccc([N+](=O)[O-])cc2)o1 | growth | 61.2% (inactive)
COc1ccc(/C=C/c2nc(Nc3ccc(S(=O)(=O)NC(C)=O)cc3)c3ccccc3n2)cc1 | growth | 63% (inactive)
COc1cc(/C=C2\COc3ccc(-c4ccccc4)cc3C2=O)cc(OC)c1 | growth | 66% (inactive)
COc1cc(NCCCCCNC(C)(C)C)c2ncccc2c1 | growth | 94.6% (inactive)

###

# System: SK-MEL-2 melanoma
# Test Summary: NCI-60 one-dose screen, 48 h (100 = growth as untreated, 0 = no growth, -100 = all killed)
# Condition Description: 10 µM unless noted
# Procedure: Growth inhibition of the SK-MEL-2 human tumor cell line is measured as a screen for anti-cancer activity. Cells are grown in 96 well plates and exposed to the test compound for 48 hours. Compounds are tested at a single concentration, which is 10^-5 M for most compounds. The reported endpoint is percent growth (GI% or GIPRCNT), where numbers from 0 - 100% represent growth inhibition, and numbers from -100% - 0 represent cell death. For example, a value of 40 represents 60% growth inhibition. […]
This is part of a sample that, as a whole, favours compounds with a hit. Of some 83,000 tested, about 20% had one in any assay.

Smiles String | growth / %
CCOC(=O)c1nc2c3ccccc3ccn2c1C(=O)OCC | 112
Cn1ccnc1C(=O)/C=C/c1ccc(CC(=O)Nc2ccc(Cl)cc2)cc1 | 89.7
COc1cc(CC(=O)c2ccc(O)c(OC)c2)ccc1O | 106
N#Cc1cc(-c2nc3ccccc3s2)c(=O)n(NS(=O)(=O)c2ccccc2)c1N | 104
O=Cc1ccc(-c2cn3ccnc3c(-c3ccc4ncn(Cc5ccccc5)c4c3)n2)cc1 | 72.2
CC(C)N1C(=O)S/C(=C2/SC(=O)N(C(C)C)C2=O)C1=O | 98.7
CCN1Cc2nc3sc(C)c(C)c3c(=O)n2C=C1C | 91.9
CCCCCN1C=C/C(=C\C(=O)n2ccc3ccccc32)c2ccccc21 | 96.9

###

# Test system: HCC-2998 colon
# Test Summary: NCI-60 one-dose screen, 48 h
# Condition Description: 10 µM unless noted
# Method: Growth inhibition of the HCC-2998 human tumor cell line is measured as a screen for anti-cancer activity. Cells are grown in 96 well plates and exposed to the test compound for 48 hours. Compounds are tested at a single concentration, which is 10^-5 M for most compounds. The reported endpoint is percent growth (GI% or GIPRCNT), where numbers from 0 - 100% represent growth inhibition, and numbers from -100% - 0 represent cell death. For example, a value of 40 represents 60% growth inhibition. […]
About 83,000 compounds went through this panel and 20% of them were active in at least one assay; those are over-represented in the sample as a whole. The source made the active and inactive calls. The calls were made as follows: active = growth percent below 10; inactive = the rest.
Classes used: y for active, n for inactive

Smiles String | Study Target | Class
O=S(=O)(NCCCNc1nccc(-c2c(-c3cccc(O)c3)nc3occn23)n1)c1ccc(Cl)cc1 | HCC-2998 colon | n
COc1ccc(CCn2cncc2-c2c[nH]c3ccccc23)cc1 | HCC-2998 colon | n
CCOC(=O)c1cc(C(=O)c2ccc(OC)c(OC)c2)n2c1ccc1ccccc12 | HCC-2998 colon | n
C=C1C(=O)O[C@H]2[C@H]1CC/C(COC(=O)NCc1c[nH]c3ccc(Br)cc13)=C\CC[C@@]1(C)O[C@@H]21 | HCC-2998 colon | n
O=C(CCN1CCCC1)Nc1ccc2c(NCc3ccccc3)c3ccccc3nc2c1 | HCC-2998 colon | y
